test: in vitro; conditions: rat, gh3-tre-luc cells, AC50 (uM) modified / 1000
Structures can show the parent of a compound that is named as a salt.
property-measured: CC50 at 24 h

INSERT INTO results (compound, property_measured, test_result) VALUES
  ('CCc1cc(Cc2cc(CC)c(N)c(CC)c2)cc(CC)c1N [4,4''-Methylenebis(2,6-diethylaniline)]', 'CC50 at 24 h', '61.9 µM'),
  ('O=C(Oc1ccccc1)c1ccccc1C(=O)Oc1ccccc1 [Diphenyl phthalate]', 'CC50 at 24 h', '53.7 µM'),
  ('CC(C)(O)c1ccc(CNC(=O)c2cccnc2Oc2ccc(F)cc2)cc1 [CP-457677]', 'CC50 at 24 h', '> 90 µM'),
  ('c1ccc(-c2cccc(-c3ccccc3)c2)cc1 [1,1'':3'',1''''-Terphenyl]', 'CC50 at 24 h', '> 90 µM'),
  ('CCCCCCCC(=O)OCCCCCC [Hexyl octanoate]', 'CC50 at 24 h', '> 90 µM'),
  ('NCC[C@H](O)C(=O)N[C@@H]1C[C@H](N)[C@@H](O[C@H]2O[C@H](CN)[C@@H](O)[C@H](O)[C@H]2O)[C@H](O)[C@H]1O[C@H]1O[C@H](CO)[C@@H](O)[C@H](N)[C@H]1O [Amikacin]', 'CC50 at 24 h', '> 50 µM'),
  ('CC(C)(C)OC(=O)c1ccc(O)cc1 [tert-Butyl 4-hydroxybenzoate]', 'CC50 at 24 h', '> 90 µM'),
  ('COc1ccc(NC(C)=O)cc1N [N-(3-Amino-4-methoxyphenyl)acetamide]', 'CC50 at 24 h', '> 90 µM'),
  ('CC(Oc1cc(Cl)ccc1Cl)C(=O)O (centres unmarked)', 'CC50 at 24 h', '> 90 µM'),
  ('Cc1c(Nc2ncccc2C(=O)O)cccc1C(F)(F)F [Flunixin meglumine]', 'CC50 at 24 h', '3.99 µM'),
  ('CCC(C=O)CC [2-Ethylbutyraldehyde]', 'CC50 at 24 h', '> 90 µM'),
  ('CCC=C1OC(=O)c2ccccc21 [3-Propylidenephthalide]', 'CC50 at 24 h', '> 90 µM'),
  ('CCOC(=O)c1ccccc1C(=C1C=C(Br)C(=O)C(Br)=C1)c1cc(Br)c(O)c(Br)c1 [Tetrabromophenolphthalein ethyl ester]', 'CC50 at 24 h', '42.7 µM'),
  ('O=C(O)CN(CC(=O)O)CC(=O)O [Nitrilotriacetic acid]', 'CC50 at 24 h', '> 90 µM'),
  ('Cc1cccc(C)c1NC(=O)c1ccccc1C(=O)O [Ftaxilide]', 'CC50 at 24 h', '> 50 µM'),
  ('OC1(c2ccc(Cl)c(C(F)(F)F)c2)CCN(CCCC(c2ccc(F)cc2)c2ccc(F)cc2)CC1 [Penfluridol]', 'CC50 at 24 h', '3.98 µM'),
  ('CC(C)c1ccc(C#N)cc1 [4-Isopropylbenzonitrile]', 'CC50 at 24 h', '> 90 µM'),
  ('Cn1cnc([N+](=O)[O-])c1Sc1ncnc2nc[nH]c12 [Azathioprine]', 'CC50 at 24 h', '> 50 µM'),
  ('CC(Oc1cc(Cl)c(Cl)cc1Cl)C(=O)O (centres unmarked) [2-(2,4,5-Trichlorophenoxy)propionic acid]', 'CC50 at 24 h', '> 90 µM'),
  ('COC(=O)c1ccc2cc(C(=O)OC)ccc2c1 [Dimethyl 2,6-naphthalenedicarboxylate]', 'CC50 at 24 h', '> 20 µM'),
  ('Cc1cc(N)c(S(=O)(=O)O)cc1Cl', 'CC50 at 24 h', '> 90 µM'),
  ('CCCCC(C)C(=O)O (centres unmarked) [2-Methylhexanoic acid]', 'CC50 at 24 h', '> 90 µM'),
  ('O=CCCc1ccccc1 [3-Phenylpropanal]', 'CC50 at 24 h', '> 90 µM'),
  ('COC(=O)NS(=O)(=O)c1ccc(N)cc1 [Asulam]', 'CC50 at 24 h', '> 90 µM'),
  ('C[C@@H]1C[C@H]2[C@@H]3C[C@H](F)C4=CC(=O)C=C[C@]4(C)[C@@]3(F)[C@@H](O)C[C@]2(C)[C@@]1(O)C(=O)COC(=O)C(C)(C)C [Flumethasone pivalate]', 'CC50 at 24 h', '> 50 µM'),
  ('CCCCOCCO [2-Butoxyethanol]', 'CC50 at 24 h', '> 90 µM'),
  ('O=S(=O)(c1ccc(O)cc1)c1ccc(O)cc1 [4,4''-Sulfonyldiphenol]', 'CC50 at 24 h', '> 90 µM'),
  ('CC(Cc1ccc(O)cc1)NCC(O)c1cc(O)cc(O)c1 (centres unmarked) [Fenoterol hydrobromide]', 'CC50 at 24 h', '> 50 µM'),
  ('CC(C)C1CCC(O)CC1 (centres unmarked) [4-Isopropylcyclohexanol]', 'CC50 at 24 h', '> 90 µM'),
  ('C=C1CC[C@@]2(O)[C@H]3Cc4ccc(O)c5c4[C@@]2(CCN3CC2CC2)[C@H]1O5 [Nalmefene]', 'CC50 at 24 h', '> 50 µM'),
  ('Clc1nc(C(Cl)(Cl)Cl)c(Cl)c(Cl)c1Cl', 'CC50 at 24 h', '22.4 µM'),
  ('CCC1(CC)C(=O)NC(=O)NC1=O [Sodium barbital]', 'CC50 at 24 h', '> 90 µM');

====

experiment: in vitro; conditions: rat, gh3-tre-luc cells, AC50 (uM) modified / 1000
# CC50 at 24 h values compiled below
property-measured: CC50 at 24 h

INSERT INTO results (compound, test_result) VALUES
  ('CCCCC1C(=O)N(c2ccccc2)N(c2ccc(O)cc2)C1=O (stereo not drawn)', '3.72 µM'),
  ('O=C1CN=C(c2ccccc2)c2cc(Cl)ccc2N1', '> 50 µM'),
  ('COc1cc(N)ccc1C', '> 90 µM');

====

assay: in vitro; conditions: rat, gh3-tre-luc cells, AC50 (uM) modified / 1000
# maps each entry to its CC50 at 24 h
property-measured: CC50 at 24 h

INSERT INTO measurements (compound, property_measured, test_result) VALUES
  ('CCC(=O)OC/C=C/c1ccccc1 [(2E)-3-Phenylprop-2-en-1-yl propanoate]', 'CC50 at 24 h', '> 90 µM'),
  ('CS(=O)(=O)c1ccc(C2=C(c3ccccc3)C(=O)OC2)cc1 [Rofecoxib]', 'CC50 at 24 h', '> 50 µM'),
  ('CCCCCCCCCCCCN1CCCC1=O [1-Dodecyl-2-pyrrolidinone]', 'CC50 at 24 h', '49.6 µM'),
  ('CCCCC(CC)COC(=O)COc1ccc(Cl)cc1C (centres unmarked) [MCPA-2-ethylhexyl]', 'CC50 at 24 h', '> 90 µM'),
  ('Cc1c(N)cccc1N [2,6-Toluenediamine]', 'CC50 at 24 h', '> 90 µM'),
  ('CCCCCCC(C)Nc1ccc(Nc2ccccc2)cc1 (centres unmarked)', 'CC50 at 24 h', '35.9 µM'),
  ('CN(C)CCCSc1ccccc1NC(=O)/C=C/c1ccccc1 [Cinanserin]', 'CC50 at 24 h', '22.6 µM'),
  ('Cc1ncc([N+](=O)[O-])n1CC(O)CCl (centres unmarked) [Ornidazole]', 'CC50 at 24 h', '> 20 µM'),
  ('C=CCOC(=O)COCCC(C)C [Prop-2-en-1-yl (3-methylbutoxy)acetate]', 'CC50 at 24 h', '> 90 µM'),
  ('CN1CCN(CC(=O)N2c3ccccc3C(=O)Nc3cccnc32)CC1 [Pirenzepine]', 'CC50 at 24 h', '> 50 µM'),
  ('COc1ccccc1C=CC=O [2-Methoxycinnamaldehyde]', 'CC50 at 24 h', '77.5 µM'),
  ('Nc1ccc2c3c(cccc13)-c1ccccc1-2 [3-Aminofluoranthene]', 'CC50 at 24 h', '> 90 µM'),
  ('C=CC(=O)OCCC(=O)O [2-Carboxyethyl acrylate]', 'CC50 at 24 h', '> 100 µM'),
  ('CCCCCCCCCCCCN1CCOCC1 [4-Dodecylmorpholine]', 'CC50 at 24 h', '> 90 µM'),
  ('Cc1oc(C)c(C(=O)Nc2ccccc2)c1C [Methfuroxam]', 'CC50 at 24 h', '> 90 µM'),
  ('O=c1[nH]c(=O)n([C@H]2C[C@H](O)[C@@H](CO)O2)cc1Br [5-Bromo-2''-deoxyuridine]', 'CC50 at 24 h', '> 90 µM'),
  ('O=C(Nc1cccc(C(F)(F)F)c1)c1cc(Br)cc(Br)c1O [Fluorosalan]', 'CC50 at 24 h', '2.69 µM'),
  ('Cc1cccc(C(C)(C)C)c1O [2-tert-Butyl-6-methylphenol]', 'CC50 at 24 h', '> 90 µM'),
  ('O=c1oc(=O)c2cc3c(=O)oc(=O)c3cc12', 'CC50 at 24 h', '> 90 µM'),
  ('CC(=O)c1sc(C)nc1C [5-Acetyl-2,4-dimethylthiazole]', 'CC50 at 24 h', '> 90 µM'),
  ('CC(=O)c1ccc(C(C)=O)cc1 [1,1-(1,4-Phenylene)bis-ethanone]', 'CC50 at 24 h', '> 90 µM'),
  ('COC(C(=O)O)c1ccccc1 (centres unmarked) [Methoxyphenylacetic acid]', 'CC50 at 24 h', '> 90 µM'),
  ('O=S(=O)(O)CC(S)CS (centres unmarked)', 'CC50 at 24 h', '> 50 µM'),
  ('O=C(Oc1ccc(Br)cc1)N1CCN2CCC1CC2 [SSR180711]', 'CC50 at 24 h', '44 µM'),
  ('Cc1nnc(C(C)C)n1[C@@H]1C[C@H]2CC[C@@H](C1)N2CC[C@H](NC(=O)C1CCC(F)(F)CC1)c1ccccc1 [Maraviroc]', 'CC50 at 24 h', '> 50 µM'),
  ('CCCCCC=O [Hexanal]', 'CC50 at 24 h', '> 100 µM');
